subject-of-test: UniProtKB P78527
Decision: IC50 beneath 2 nM gives Criterion met; IC50 meeting or exceeding 2 nM gives Criterion not met.

{"compound": "Cc1cc2ncnn2cc1Nc1ncc2c(C)nn(CCC#N)c2n1 [Example 72]", "class-assignment": "Criterion met"}
{"compound": "Cc1cc2ncnn2cc1Nc1ncc2c(C)nn(CC(F)F)c2n1 [Example 57]", "class-assignment": "Criterion not met"}
{"compound": "Cc1cc2ncnn2cc1Nc1ncc2c(C)nn(C3CCOC(C)C3)c2n1 (single isomer, unassigned) [Example 35]", "class-assignment": "Criterion not met"}
{"compound": "Cc1cc2ncnn2cc1Nc1ncc2c(C)nn([C@@H]3C[C@H]4CC[C@@H](C3)O4)c2n1 [Example 107]", "class-assignment": "Criterion met"}
{"compound": "Cc1cc2ncnn2cc1Nc1ncc2c(C)nn(C3CCOC(C)(C)C3)c2n1 (single isomer, unassigned) [Example 117]", "class-assignment": "Criterion met"}
{"compound": "Cc1cc2ncnn2cc1Nc1ncc2c(C)nn(C3CC4(CCC4)C3)c2n1 [Example 43]", "class-assignment": "Criterion met"}
{"compound": "Cc1cc2ncnn2cc1Nc1ncc2c(C)nn(C3CCCOC3)c2n1 (single isomer, unassigned) [Example 30]", "class-assignment": "Criterion not met"}
{"compound": "Cc1cc2ncnn2cc1Nc1ncc2c(C)nn(C3CCOC3)c2n1 (single isomer, unassigned) [Example 49]", "class-assignment": "Criterion met"}
{"compound": "Cc1cc2ncnn2cc1Nc1ncc2c(C)nn(C3CCCOCC3)c2n1 (single isomer, unassigned) [Example 34]", "class-assignment": "Criterion met"}
{"compound": "CO[C@H]1CC[C@H](n2nc(C)c3cnc(Nc4cn5ccnc5cc4C)nc32)CC1 [Example 26]", "class-assignment": "Criterion not met"}
{"compound": "Cc1cc2ncnn2cc1Nc1ncc2c(C)nn(C3CC4(C3)CC(F)(F)C4)c2n1 [Example 41]", "class-assignment": "Criterion met"}
{"compound": "Cc1cc2ncnn2cc1Nc1ncc2c(n1)c(C1CCCCC1)nn2C [Example 5]", "class-assignment": "Criterion met"}
{"compound": "Cc1cc2ncnn2cc1Nc1ncc2c(C(F)(F)F)nn(C3CCOCC3)c2n1 [Example 17]", "class-assignment": "Criterion not met"}
{"compound": "Cc1cc2ncnn2cc1Nc1ncc2c(C)nn(C3CCC(OC(F)F)CC3)c2n1 (stereo not shown) [Example 23]", "class-assignment": "Criterion met"}
{"compound": "Cc1cc2ncnn2cc1Nc1ncc2c(C)nn(C3CCC(F)(F)CC3)c2n1 [Example 21]", "class-assignment": "Criterion met"}
{"compound": "COC1CCC(n2nc(C)c3cnc(Nc4cn5ncnc5cc4C)nc32)C1 (single isomer, unassigned) [Example 110]", "class-assignment": "Criterion met"}

* * *

protocol: Metabolic stability assay (human microsomal Clint)
Type: in vitro ADME
experimental-parameters: human, pooled human liver microsomes, pH 7.4, 1 μM compound, 1 mg/mL microsomes, 1 mM NADPH, 37° C.
Decision: microsomal CLint at 1 μM beneath 100 µL/min/mg gives 1 (yes); microsomal CLint at 1 μM meeting or exceeding 100 µL/min/mg gives 0 (no).

{"compound": "Cc1cc2ncnn2cc1Nc1ncc2c(C)nn(C3CCOC3)c2n1 (single isomer, unassigned) [Example 48]", "class-assignment": "1 (yes)"}
{"compound": "Cc1cc2ncnn2cc1Nc1ncc2c(C)nn([C@H]3C[C@H](C)C3)c2n1 [Example 39]", "class-assignment": "0 (no)"}
{"compound": "Cc1nn(C2CCOCC2)c2nc(Nc3cn4ncnc4cc3Cl)ncc12 [Example 16]", "class-assignment": "1 (yes)"}
{"compound": "COc1ccc(Cn2nc(C)c3cnc(Nc4cn5ncnc5cc4C)nc32)cc1 [Example 18]", "class-assignment": "0 (no)"}
{"compound": "Cc1cc2ncnn2cc1Nc1ncc2c(C)nn([C@H]3CC[C@@H](O)CC3)c2n1 [Example 32]", "class-assignment": "1 (yes)"}
{"compound": "Cc1cc2ncnn2cc1Nc1ncc2c(C)nn(C3CCCC3)c2n1 [Example 47]", "class-assignment": "1 (yes)"}
{"compound": "COC1CCC(n2nc(C)c3cnc(Nc4cn5ncnc5cc4C)nc32)C1 (single isomer, unassigned) [Example 108]", "class-assignment": "1 (yes)"}
{"compound": "Cc1cc2ncnn2cc1Nc1ncc2c(C)nn(C3CC(C)OC(C)C3)c2n1 (single isomer, unassigned) [Example 86]", "class-assignment": "0 (no)"}
{"compound": "COCCC(C)n1nc(C)c2cnc(Nc3cn4ncnc4cc3C)nc21 (single isomer, unassigned) [Example 67]", "class-assignment": "0 (no)"}
{"compound": "Cc1cc2ncnn2cc1Nc1ncc2c(C)nn(CCCOC(F)(F)F)c2n1 [Example 66]", "class-assignment": "0 (no)"}
{"compound": "CO[C@H]1CC[C@@H](n2nc(C)c3cnc(Nc4cn5ncnc5cc4C)nc32)CC1 [Example 25]", "class-assignment": "0 (no)"}
{"compound": "CCC(C)n1nc(C)c2cnc(Nc3cn4ncnc4cc3C)nc21 (single isomer, unassigned) [Example 61]", "class-assignment": "1 (yes)"}
{"compound": "Cc1cc2ncnn2cc1Nc1ncc2c(C)nn(C(C)C)c2n1 [Example 59]", "class-assignment": "1 (yes)"}
{"compound": "Cc1cc2ncnn2cc1Nc1ncc2c(C)nn(C3CCC(OC(F)F)CC3)c2n1 (centres unmarked) [Example 23]", "class-assignment": "0 (no)"}
{"compound": "Cc1cc2ncnn2cc1Nc1ncc2c(n1)c(C1CCOCC1)nn2C [Example 1]", "class-assignment": "1 (yes)"}
{"compound": "Cc1cc2ncnn2cc1Nc1ncc2c(C)cn(C3CCOCC3)c2n1 [Example 15]", "class-assignment": "1 (yes)"}

* * *

Measured microsomal CLint at 1 μM values are reported for all entries that follow.
protocol: Metabolic stability assay (human microsomal Clint)
Format: in vitro ADME
experimental-parameters: human, pooled human liver microsomes, pH 7.4, 1 μM compound, 1 mg/mL microsomes, 1 mM NADPH, 37° C.
Description: 1 μM compound was incubated with 1 mg/mL of microsomes (Pooled HLM with 20 mg/ml protein cone) at 37° C. in 250 μL of buffer (100 mM phosphate buffer, pH-7.4) containing 1 mM NADPH solution. […] 40 μL of supernatant was diluted to 200 μL with pure water and analyzed using LC-MS/MS. In vitro intrinsic clearance of the drugs in the microsome CLint (μl/min/mg) was calculated in the similar manner as the CLint in the hepatocyte.
metric-name: microsomal CLint at 1 μM (µL/min/mg)

{"molecule": "Cc1cc2ncnn2cc1Nc1ncc2c(C)nn(C3CC4(COC4)C3)c2n1 [Example 42]", "readout-relation": "=", "value-measured": 19.5}
{"molecule": "Cc1cc2nccn2cc1Nc1ncc2c(C)nn(C(C)C)c2n1 [Example 60]", "readout-relation": "=", "value-measured": 20.4}
{"molecule": "Cc1cc2ncnn2cc1Nc1ncc2c(C)nn(C3CCC4(CC3)CC4)c2n1 [Example 37]", "readout-relation": "=", "value-measured": 200}
{"molecule": "Cc1cc2nccn2cc1Nc1ncc2c(n1)c(C1CCOCC1)nn2C [Example 2]", "readout-relation": "=", "value-measured": 12.7}
{"molecule": "Cc1cc2ncnn2cc1Nc1ncc2c(C)nn(C3CCOC(C)(C)C3)c2n1 (single isomer, unassigned) [Example 116]", "readout-relation": "=", "value-measured": 71.1}
{"molecule": "Cc1cc2ncnn2cc1Nc1ncc2c(n1)c(C1CCOCC1)cn2C [Example 3]", "readout-relation": "=", "value-measured": 39.7}
{"molecule": "Cc1cc(-c2nn(C)c3cnc(Nc4cn5ncnc5cc4C)nc23)ccn1 [Example 102]", "readout-relation": "=", "value-measured": 15}
{"molecule": "Cc1cc2ncnn2cc1Nc1ncc2c(C)nn([C@H]3CC[C@@H](F)CC3)c2n1 [Example 27]", "readout-relation": "=", "value-measured": 41.4}
{"molecule": "COC(C)Cn1nc(C)c2cnc(Nc3cn4ncnc4cc3C)nc21 (racemic) [Example 69]", "readout-relation": "=", "value-measured": 13.6}
{"molecule": "Cc1cc2ncnn2cc1Nc1ncc2c(C)nn(CCOC(F)(F)F)c2n1 [Example 64]", "readout-relation": "=", "value-measured": 50.8}
{"molecule": "Cc1cc2ncnn2cc1Nc1ncc2c(n1)c(C(C)C)nn2C [Example 4]", "readout-relation": "=", "value-measured": 47.3}
{"molecule": "Cc1cc2ncnn2cc1Nc1ncc2c(C)nn(C3CCN(C)CC3)c2n1 [Example 19]", "readout-relation": "=", "value-measured": 4.3}
{"molecule": "Cc1cc2nccn2cc1Nc1ncc2c(C)nn(C3CCOCC3)c2n1 [Example 14]", "readout-relation": "=", "value-measured": 9.9}
{"molecule": "Cc1cc2ncnn2cc1Nc1ncc2c(C)nn(C3CCOCC3C)c2n1 (single isomer, unassigned) [Example 112]", "readout-relation": "=", "value-measured": 47}
{"molecule": "Cc1cc2nccn2cc1Nc1ncc2c(C)nn(CC(C)C#N)c2n1 (centres unmarked) [Example 80]", "readout-relation": "=", "value-measured": 23.5}
{"molecule": "CO[C@H]1CC[C@@H](c2nn(C)c3cnc(Nc4cn5ncnc5cc4C)nc32)CC1 [Example 8]", "readout-relation": "=", "value-measured": 234}
{"molecule": "Cc1cc2ncnn2cc1Nc1ncc2c(C)nn(C3CCOCC3)c2n1 [Example 13]", "readout-relation": "=", "value-measured": 12.9}
{"molecule": "Cc1cc2ncnn2cc1Nc1ncc2c(n1)c([C@H]1CC[C@@H](OC(F)F)CC1)nn2C [Example 11]", "readout-relation": ">", "value-measured": 300}
{"molecule": "Cc1cc2ncnn2cc1Nc1ncc2c(C)nn(CC3CCOC3)c2n1 (single isomer, unassigned) [Example 52]", "readout-relation": "=", "value-measured": 14.1}
{"molecule": "CO[C@H]1CC[C@H](c2nn(C)c3cnc(Nc4cn5ncnc5cc4C)nc32)CC1 [Example 7]", "readout-relation": "=", "value-measured": 75.1}
{"molecule": "Cc1cc2ncnn2cc1Nc1ncc2c(C)nn([C@H]3CC[C@H](F)CC3)c2n1 [Example 28]", "readout-relation": "=", "value-measured": 70}
{"molecule": "Cc1cc2ncnn2cc1Nc1ncc2c(C)nn(CC(F)F)c2n1 [Example 57]", "readout-relation": "=", "value-measured": 20.9}
{"molecule": "Cc1cc2ncnn2cc1Nc1ncc2c(C)nn(CC3CCCO3)c2n1 (single isomer, unassigned) [Example 50]", "readout-relation": "=", "value-measured": 12.2}
{"molecule": "Cc1cc2ncnn2cc1Nc1ncc2c(C)nn([C@@H]3C[C@H]4CC[C@@H](C3)O4)c2n1 [Example 107]", "readout-relation": "=", "value-measured": 13.9}
{"molecule": "Cc1cc2ncnn2cc1Nc1ncc2c(n1)c(C1CCCCC1)nn2C [Example 5]", "readout-relation": "=", "value-measured": 135}
{"molecule": "Cc1cc2ncnn2cc1Nc1ncc2c(C)nn(C3CCCOCC3)c2n1 (single isomer, unassigned) [Example 33]", "readout-relation": "=", "value-measured": 41.5}
{"molecule": "Cc1cc2ncnn2cc1Nc1ncc2c(C)nn(C3COC3)c2n1 [Example 44]", "readout-relation": "=", "value-measured": 8.8}
{"molecule": "[2H]C([2H])([2H])n1nc(C2CCOCC2)c2nc(Nc3cn4ncnc4cc3C)ncc21 [Example 10]", "readout-relation": "=", "value-measured": 17.2}
{"molecule": "Cc1cc2ncnn2cc1Nc1ncc2c(C)nn([C@H]3CC[C@H](O)CC3)c2n1 [Example 31]", "readout-relation": "=", "value-measured": 6.6}
{"molecule": "Cc1cc2ncnn2cc1Nc1ncc2c(C)nn(C3CC4(C3)CC(F)(F)C4)c2n1 [Example 41]", "readout-relation": "=", "value-measured": 216}
{"molecule": "Cc1cc2ncnn2cc1Nc1ncc2c(C)nn(CC3CC3)c2n1 [Example 38]", "readout-relation": "=", "value-measured": 34.2}
{"molecule": "Cc1cc2ncnn2cc1Nc1ncc2c(C(F)(F)F)nn(C3CCOCC3)c2n1 [Example 17]", "readout-relation": "=", "value-measured": 54.7}
{"molecule": "Cc1cc2ncnn2cc1Nc1ncc2c(C)nn(CCCC(F)(F)F)c2n1 [Example 58]", "readout-relation": "=", "value-measured": 70.8}
{"molecule": "CO[C@H]1CC[C@H](n2nc(C)c3cnc(Nc4cn5ccnc5cc4C)nc32)CC1 [Example 26]", "readout-relation": "=", "value-measured": 134}
{"molecule": "Cc1cc2ncnn2cc1Nc1ncc2c(n1)c(C1CCC(F)(F)CC1)nn2C [Example 9]", "readout-relation": "=", "value-measured": 135}
